ASSAY_TARGET: HLA-B*39:01
TEST_DESCRIPTION: IEDB peptide-MHC binding, purified MHC/competitive/fluorescence; filed as Kd, often an IC50 or EC50 that approximates it; bounds were set here for any values at or beyond the usual limits of such assays
RUN_PARAMETERS: source organism: Vibrio parahaemolyticus K5030
pKd: −log10 of the molar value.
QUANTITY: pKd

In: For the sequence `AGGWVLWKV` , give its measured pKd value.
Out: ≤ 4.70

---

ASSAY_TARGET: HLA-B*35:01
TEST_DESCRIPTION: IEDB peptide-MHC binding, purified MHC/direct/fluorescence; filed as Kd, often an IC50 or EC50 that approximates it; bounds were set here for any values at or beyond the usual limits of such assays
RUN_PARAMETERS: source organism: Campylobacter jejuni
QUANTITY: pKd
In textbook form, pKd equals minus log to base ten of the concentration in mol/L.

In: Please tell me the measured pKd for `KSNEKNMDF` ; system: HLA-B*35:01.
Out: 5.50

---

ASSAY_TARGET: HLA-C*06:02
TEST_DESCRIPTION: IEDB peptide-MHC binding, purified MHC/competitive/fluorescence; filed as Kd, often an IC50 or EC50 that approximates it; bounds were set here for any values at or beyond the usual limits of such assays
RUN_PARAMETERS: source organism: Rickettsia felis URRWXCal2
QUANTITY: pKd
In textbook form, pKd equals minus log to base ten of the concentration in mol/L.

In: For the sequence `FMYALSRAF` , give its measured pKd value.
Out: 7.19

---

ASSAY_TARGET: HLA-B*58:01
TEST_DESCRIPTION: IEDB peptide-MHC binding, purified MHC/direct/fluorescence; filed as Kd, often an IC50 or EC50 that approximates it; bounds were set here for any values at or beyond the usual limits of such assays
RUN_PARAMETERS: source organism: Homo sapiens
QUANTITY: pKd
In textbook form, pKd equals minus log to base ten of the concentration in mol/L.

In: For the sequence `VGYVDDTQF` , give its measured pKd value.
Out: 6.68

---

ASSAY_TARGET: HLA-B*27:05
TEST_DESCRIPTION: IEDB peptide-MHC binding, purified MHC/direct/fluorescence; filed as Kd, often an IC50 or EC50 that approximates it; bounds were set here for any values at or beyond the usual limits of such assays
RUN_PARAMETERS: source organism: Camelpox virus CMS
QUANTITY: Kd

In: For the sequence `SSDDIPPRW` , give its measured Kd value.
Out: ≥ 20 µM

---

ASSAY_TARGET: HLA-B*58:01
TEST_DESCRIPTION: IEDB peptide-MHC binding, purified MHC/competitive/fluorescence; filed as Kd, often an IC50 or EC50 that approximates it; bounds were set here for any values at or beyond the usual limits of such assays
RUN_PARAMETERS: source organism: Entamoeba histolytica HM-1:IMSS
QUANTITY: Kd

In: For the sequence `EVRKAIEFV` , give its measured Kd value.
Out: ≥ 5 µM

---

ASSAY_TARGET: HLA-B*38:01
TEST_DESCRIPTION: IEDB peptide-MHC binding, purified MHC/direct/fluorescence; filed as Kd, often an IC50 or EC50 that approximates it; bounds were set here for any values at or beyond the usual limits of such assays
RUN_PARAMETERS: source organism: Vibrio vulnificus YJ016
QUANTITY: Kd

In: For the sequence `IVAQGIAAL` , give its measured Kd value.
Out: ≥ 20 µM

---

ASSAY_TARGET: HLA-B*15:01
TEST_DESCRIPTION: IEDB peptide-MHC binding, purified MHC/direct/fluorescence; filed as Kd, often an IC50 or EC50 that approximates it; bounds were set here for any values at or beyond the usual limits of such assays
RUN_PARAMETERS: source organism: Pseudomonas aeruginosa
QUANTITY: Kd

Observe how each entry below is paired with its result.
- SEQUENCE_INPUT: "SEYKAAGYL"
  ASSAY_TARGET: "HLA-B*15:01"
  Kd: "≥ 20 µM"
- SEQUENCE_INPUT: "NQRETTVVW"
  ASSAY_TARGET: "HLA-B*15:01"
  Kd: "0.133 µM"
- SEQUENCE_INPUT: "TYYPQVVLG"
  ASSAY_TARGET: "HLA-B*15:01"
  Kd: "≥ 20 µM"

// next entry
In: Please tell me the measured Kd for `GEDDDMLPW` ; system: HLA-B*15:01.
Out: ≥ 20 µM

---

ASSAY_TARGET: HLA-A*02:17
TEST_DESCRIPTION: IEDB peptide-MHC binding, purified MHC/competitive/radioactivity; filed as Kd, often an IC50 or EC50 that approximates it; bounds were set here for any values at or beyond the usual limits of such assays
RUN_PARAMETERS: source organism: Dengue virus 3 China/80-2/1980
// values below are reported pKd
In textbook form, pKd equals minus log to base ten of the concentration in mol/L.

Observe how each entry below is paired with its result.
- SEQUENCE_INPUT: "VLFTFVLLL"
  ASSAY_TARGET: "HLA-A*02:17"
  pKd: 6.25
- SEQUENCE_INPUT: "LLLGLMILLT"
  ASSAY_TARGET: "HLA-A*02:17"
  pKd: 6.16

// next entry
In: Please tell me the measured pKd for `RLITANPVV` ; system: HLA-A*02:17.
Out: 6.28

---

ASSAY_TARGET: HLA-A*11:01
TEST_DESCRIPTION: IEDB peptide-MHC binding, purified MHC/direct/fluorescence; filed as Kd, often an IC50 or EC50 that approximates it; bounds were set here for any values at or beyond the usual limits of such assays
RUN_PARAMETERS: source organism: Yellow fever virus
QUANTITY: Kd

In: For the sequence `RMGERQLQK` , give its measured Kd value.
Out: 29.5 nM

---

ASSAY_TARGET: HLA-B*39:01
TEST_DESCRIPTION: IEDB peptide-MHC binding, purified MHC/competitive/fluorescence; filed as Kd, often an IC50 or EC50 that approximates it; bounds were set here for any values at or beyond the usual limits of such assays
RUN_PARAMETERS: source organism: Neembucu hantavirus
pKd: −log10 of the molar value.
QUANTITY: pKd

In: For the sequence `ETESATLFT` , give its measured pKd value.
Out: ≤ 4.70

---

ASSAY_TARGET: HLA-A*24:02
TEST_DESCRIPTION: IEDB peptide-MHC binding, purified MHC/competitive/fluorescence; bounds were set here for any values at or beyond the usual limits of such assays
RUN_PARAMETERS: source organism: Zaire ebolavirus
QUANTITY: IC50 (µM)
Form entry: value (µM) — number only.

- SEQUENCE_INPUT: "TELRTFSIL"
  IC50 / µM: 8.43

In: For the sequence `FHKEGAFFL` , give its measured IC50 value.
Out: 0.719

---

ASSAY_TARGET: HLA-A*11:01
TEST_DESCRIPTION: IEDB peptide-MHC binding, purified MHC/direct/fluorescence; filed as Kd, often an IC50 or EC50 that approximates it; bounds were set here for any values at or beyond the usual limits of such assays
RUN_PARAMETERS: source organism: Influenza A virus (A/Hong Kong/485/1997(H5N1))
QUANTITY: Kd

In: For the sequence `QMRDVLGTF` , give its measured Kd value.
Out: ≥ 20 µM

---

ASSAY_TARGET: HLA-B*58:01
TEST_DESCRIPTION: IEDB peptide-MHC binding, purified MHC/direct/fluorescence; filed as Kd, often an IC50 or EC50 that approximates it; bounds were set here for any values at or beyond the usual limits of such assays
RUN_PARAMETERS: source organism: Human immunodeficiency virus 1
QUANTITY: pKd
In textbook form, pKd equals minus log to base ten of the concentration in mol/L.

In: Please tell me the measured pKd for `NANPDCKTI` ; system: HLA-B*58:01.
Out: 5.03

---

ASSAY_TARGET: HLA-A*26:01
TEST_DESCRIPTION: IEDB peptide-MHC binding, purified MHC/competitive/fluorescence; filed as Kd, often an IC50 or EC50 that approximates it; bounds were set here for any values at or beyond the usual limits of such assays
RUN_PARAMETERS: source organism: Yersinia bercovieri ATCC 43970
QUANTITY: Kd (µM)
Form entry: value (µM) — number only.

In: For the sequence `YIYDTAFKY` , give its measured Kd value.
Out: 0.265

---

ASSAY_TARGET: HLA-B*18:01
TEST_DESCRIPTION: IEDB peptide-MHC binding, purified MHC/competitive/fluorescence; filed as Kd, often an IC50 or EC50 that approximates it; bounds were set here for any values at or beyond the usual limits of such assays
RUN_PARAMETERS: source organism: Canarypox virus
QUANTITY: Kd

In: For the sequence `YMMDGNECP` , give its measured Kd value.
Out: ≥ 20 µM
